These data points were gathered from patent US10947215B2.

# Tested on: Ba/F3-CDM cells (Ba/F3 transfected with CD8-MerTK)
# assay text: In cell MER kinase assay, Ba/F3-CDM cell proliferation without IL-3 (Celltiter-Glo, GI50)
# Type: cell-based, murine
# measurement context: 48 hours, read-out: Cell growth inhibition (GI50)
readout name: GI50

| compound | tested system | readout name | assay value |
| --- | --- | --- | --- |
| CCN1CCN(Cc2ccc(-c3ccc(CO[C@H]4CCC[C@@H]4NC(=O)c4cc(-c5cnn(C)c5)cnc4N)cc3)cc2)CC1 | Ba/F3-CDM cells (Ba/F3 transfected with CD8-MerTK) | GI50 | < 100 nM |
| Cn1cc(-c2cnc(N)c(C(=O)N[C@H]3CCC[C@@H]3OCc3ccc(C#CCCO)cc3)c2)cn1 | Ba/F3-CDM cells (Ba/F3 transfected with CD8-MerTK) | GI50 | > 1000 nM |
| CC(c1ccc(-c2ccc(CO[C@H]3CCC[C@@H]3NC(=O)c3cc(-c4cnn(C)c4)cnc3N)cc2)cc1)N1C[C@@H](C)N(CCO)[C@@H](C)C1 (stereo partly drawn) | Ba/F3-CDM cells (Ba/F3 transfected with CD8-MerTK) | GI50 | < 100 nM |
| Cn1cc(-c2cnc(N)c(C(=O)N[C@H]3CCC[C@@H]3OCc3ccc(-c4ccc(CN5CCN(C6CC6)CC5)cc4)cc3)c2)cn1 | Ba/F3-CDM cells (Ba/F3 transfected with CD8-MerTK) | GI50 | < 100 nM |
| CCc1cc(CO[C@H]2CNC[C@@H]2NC(=O)c2cc(-c3cnn(C4CCNCC4)c3)cnc2N)ccc1C | Ba/F3-CDM cells (Ba/F3 transfected with CD8-MerTK) | GI50 | > 1000 nM |

Here is another compound to look at.
QUERY: Entry under review: "Cc1cccc(-c2cnc(N)c(C(=O)N[C@H]3CCC[C@@H]3OCc3ccc(-c4ccc(CN5CCN(C)CC5)cc4)cc3)c2)c1" . Reported GI50?
RESULT: < 100 nM
